Provide the recorded viability, T/C for the entries that follow.
Test system: 556581-035-R-J1-PDC complex spheroid growth
Assay: Anticancer human tumor 556581-035-R-J1-PDC patient-derived ovarian carcinoma cell line growth inhibition [Asc]
Conditions: second compound 0.1 µM; first compound 0.949 µM; hits give low values
// units = %; emit number, no label

Q: What value of viability, T/C has been reported for the following compound? CCN1C(C(=O)NC23CCC(C(=O)O)(CC2)CC3)C(c2cccc(Cl)c2F)C2(C(=O)Nc3cc(Cl)ccc32)C12CCCCC2 (centres undefined) + Cc1c(S(C)(=O)=O)c(-c2cc(F)cc(N3CCN(c4ccc(NS(=O)(=O)c5ccc(NC(CCN6CCC(C(=O)OCCCP(=O)(O)O)CC6)CSc6ccccc6)c(S(=O)(=O)C(F)(F)F)c5)cc4)CC3)c2)c(-c2ccc(Cl)cc2)n1C(C)C
Result: 82

Q: What value of viability, T/C has been reported for the following compound? Cc1nc(N2CCC3(CC2)COC(C)C3N)c(CO)nc1Sc1ccnc(N)c1Cl (centres undefined) + CNC(C)C(=O)NC1CN(S(=O)(=O)c2cccc(S(=O)(=O)N3CCC4CCC(C(=O)NC(c5ccccc5)c5ccccc5)N4C(=O)C(NC(=O)C(C)NC)C3)c2)CCC2CCC(C(=O)NC(c3ccccc3)c3ccccc3)N2C1=O
Result: 58.4

Q: What value of viability, T/C has been reported for the following compound? CCN1C(C(=O)NC23CCC(C(=O)O)(CC2)CC3)C(c2cccc(Cl)c2F)C2(C(=O)Nc3cc(Cl)ccc32)C12CCCCC2 (centres undefined) + CNC(C)C(=O)NC1CN(S(=O)(=O)c2cccc(S(=O)(=O)N3CCC4CCC(C(=O)NC(c5ccccc5)c5ccccc5)N4C(=O)C(NC(=O)C(C)NC)C3)c2)CCC2CCC(C(=O)NC(c3ccccc3)c3ccccc3)N2C1=O
Result: 90

Q: What value of viability, T/C has been reported for the following compound? Cc1nc(N2CCC3(CC2)COC(C)C3N)c(CO)nc1Sc1ccnc(N)c1Cl (centres undefined) + Cc1c(S(C)(=O)=O)c(-c2cc(F)cc(N3CCN(c4ccc(NS(=O)(=O)c5ccc(NC(CCN6CCC(C(=O)OCCCP(=O)(O)O)CC6)CSc6ccccc6)c(S(=O)(=O)C(F)(F)F)c5)cc4)CC3)c2)c(-c2ccc(Cl)cc2)n1C(C)C
Result: 47

----------
Test system: 556581-035-R-J1-PDC complex spheroid growth
Experiment: Anticancer human tumor 556581-035-R-J1-PDC cell line growth inhibition [Asc];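 further: spheroids exposed to agents for 7 days before viability read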
Conditions: second compound 1 µM; first compound 0.1 µM; hits give low values
Provide the recorded viability, T/C for the entries that follow.
// units = %; emit number, no label

Q: What value of viability, T/C has been reported for the following compound? C=CC(=O)N1CCN(c2nc(=O)n(-c3c(C)ccnc3C(C)C)c3nc(-c4c(O)cccc4F)c(F)cc23)C(C)C1 (stereo not drawn) + CNC(C)C(=O)NC1CN(S(=O)(=O)c2cccc(S(=O)(=O)N3CCC4CCC(C(=O)NC(c5ccccc5)c5ccccc5)N4C(=O)C(NC(=O)C(C)NC)C3)c2)CCC2CCC(C(=O)NC(c3ccccc3)c3ccccc3)N2C1=O
Result: 71.5

Q: What value of viability, T/C has been reported for the following compound? C#Cc1c(F)ccc2cc(O)cc(-c3ncc4c(N5CC6CCC(C5)N6)nc(OCC56CCCN5CC(F)C6)nc4c3F)c12 (stereo not drawn) + CNC(C)C(=O)NC1CN(S(=O)(=O)c2cccc(S(=O)(=O)N3CCC4CCC(C(=O)NC(c5ccccc5)c5ccccc5)N4C(=O)C(NC(=O)C(C)NC)C3)c2)CCC2CCC(C(=O)NC(c3ccccc3)c3ccccc3)N2C1=O
Result: 64.3

Q: What value of viability, T/C has been reported for the following compound? NC1CCC(NC2CC2c2ccccc2)CC1 (stereo not drawn) + Cc1c(S(C)(=O)=O)c(-c2cc(F)cc(N3CCN(c4ccc(NS(=O)(=O)c5ccc(NC(CCN6CCC(C(=O)OCCCP(=O)(O)O)CC6)CSc6ccccc6)c(S(=O)(=O)C(F)(F)F)c5)cc4)CC3)c2)c(-c2ccc(Cl)cc2)n1C(C)C
Result: 56.4
